measured target: carbonyl reductase 1 (CBR1) (Homo sapiens, UniProt P16152)
Sequence (P16152 2-277 limits assumed): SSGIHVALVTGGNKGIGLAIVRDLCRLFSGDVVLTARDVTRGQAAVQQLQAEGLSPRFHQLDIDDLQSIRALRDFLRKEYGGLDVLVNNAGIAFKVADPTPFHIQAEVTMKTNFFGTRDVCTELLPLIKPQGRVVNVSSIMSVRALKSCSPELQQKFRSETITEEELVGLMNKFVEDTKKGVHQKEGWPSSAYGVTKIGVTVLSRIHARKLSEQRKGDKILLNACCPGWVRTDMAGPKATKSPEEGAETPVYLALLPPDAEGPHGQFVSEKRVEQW
measured endpoint: IC50 (µM)

1) CC1=CC(=O)c2ccccc2C1=O [MEN, menadione]	0.34
2) O=c1cc(-c2ccc(O)c(O)c2)oc2cc(O)cc(O)c12 [LUT, luteolin]	8.21
